tested system: T1, Bdf1 bromodomain 1 (GST-tagged, WT) (Saccharomyces cerevisiae (strain ATCC …, UniProt P35817))
T1 chain: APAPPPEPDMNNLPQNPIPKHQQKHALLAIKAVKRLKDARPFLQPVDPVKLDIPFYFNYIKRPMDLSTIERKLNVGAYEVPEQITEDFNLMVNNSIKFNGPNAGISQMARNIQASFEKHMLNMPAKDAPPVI
assay overview: histone peptide array probed with recombinant GST-bromodomain, signal normalised to myc peptide control
Non-standard residues stand in square brackets, D forms with d. No end group written: not given here. Arg(Me2s) = CN=C(NC)NCCC[C@H](N)C(=O)O; Lys(Me2) = CN(C)CCCC[C@H](N)C(=O)O; pS = N[C@@H](COP(=O)(O)O)C(=O)O
Here, each record is paired with measured binding score data.
Enter a number only.

KKKKKRRRRRXKKKKRK (K Kme1 Kme2 Kme3 Kac R Rme2s R Rme2a R Cit K Kme1 Kac Kme3 R K) [background 01]	0

GET /values?readout=binding score&item= ARTKQTA[Arg(Me2s)][Lys(Me2)][pS]TGGKAPRKQ
0.000179

What does the record list as binding score for ARTKQTARKSTGGKAPRKQ (A R T K Q T A R Kme1 pS T G G K A P R K Q) ?
0

For [pS]GRGKQGGK(Ac)ARAK(Ac)AKSRSS [H2a 1-19] , what is its reported binding score?
0.0477
